- assay target: apoE3 (Homo sapiens, UniProt P02649, A303C)
- Sequence (P02649 19-317 A303C): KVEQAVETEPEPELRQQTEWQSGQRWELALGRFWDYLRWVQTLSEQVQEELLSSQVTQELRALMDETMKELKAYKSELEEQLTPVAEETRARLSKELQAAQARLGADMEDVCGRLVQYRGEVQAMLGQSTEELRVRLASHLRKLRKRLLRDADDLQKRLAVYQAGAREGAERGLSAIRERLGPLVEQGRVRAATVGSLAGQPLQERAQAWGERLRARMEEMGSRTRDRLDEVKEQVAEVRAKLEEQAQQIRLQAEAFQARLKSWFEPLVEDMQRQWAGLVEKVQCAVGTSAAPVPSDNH
- assay remarks: Fluorescence of TMR-labeled apoE3
observed property: Kd (µM)

[[record]]
smiles_notation = "Cn1nc(CC(=O)Nc2cc(S(=O)(=O)Nc3cccc(Cl)c3)ccc2O)c2ccccc2c1=O"
observed_property = "Kd"
uom = "µM"
result = 7


----------
- assay target: apoE4 (Homo sapiens, UniProt P02649, C130R/S157C)
pKd: −log10 of the molar value.
observed property: pKd

[[record]]
smiles_notation = "Cn1nc(CC(=O)Nc2cc(S(=O)(=O)Nc3cccc(Cl)c3)ccc2O)c2ccccc2c1=O"
result = 5.12


All values here come from paper PMC4976638.
